Ref: patent US11180468B2

assay: Solubility in phosphate buffer at pH 4 at room temperature, filtered solution analysed by HPLC against DMSO standard; type: physicochemical; settings: aqueous buffer, thermodynamic from solid; Urolithin A compounds; phosphate buffer pH 4, room temperature; molar basis; read-out: Solubility (mM/L)
Structures can show the parent of a compound that is named as a salt.
property_name: solubility (mM)

INSERT INTO results (molecule, property_name, measurement_unit, readout_value) VALUES
  ('NCC(=O)Oc1ccc2c(c1)oc(=O)c1cc(OC(=O)CN)ccc12 [Example 1, dihydrochloride]', 'solubility', 'mM', 5.64),
  ('CC(N)C(=O)Oc1ccc2c(c1)oc(=O)c1cc(OC(=O)[C@@H](C)N)ccc12 (stereo in doubt) [Example 2, dihydrochloride]', 'solubility', 'mM', 4.86),
  ('CC(C)CC(N)C(=O)Oc1ccc2c(c1)oc(=O)c1cc(OC(=O)[C@H](N)CC(C)C)ccc12 (stereo in doubt) [Example 4, dihydrochloride]', 'solubility', 'mM', 4.73),
  ('O=c1oc2cc(O)ccc2c2ccc(O)cc12 [Urolithin A, reference compound]', 'solubility', 'mM', 0.00057);

* * *

Recorded solubility for the following compounds
test: Solubility in phosphate buffer at pH 4 at room temperature, filtered solution analysed by HPLC against DMSO standard; assay type: physicochemical; conditions: aqueous buffer, thermodynamic from solid; Urolithin B compounds; phosphate buffer pH 4, room temperature; molar basis; read-out: Solubility (mM/L)
Counter-ions that a name gives are not always drawn.
property_name: solubility (mM)

INSERT INTO measurements (compound, property_name, readout_value) VALUES
  ('O=c1oc2cc(O)ccc2c2ccccc12 [Urolithin B, reference compound]', 'solubility', 0.00127),
  ('NCC(=O)Oc1ccc2c(c1)oc(=O)c1ccccc12 [Example 3, hydrochloride]', 'solubility', 4.94);

* * *

assay: Solubility in phosphate buffer at pH 4 at room temperature, filtered solution analysed by HPLC against DMSO standard; assay type: physicochemical; conditions: aqueous buffer, thermodynamic from solid; Urolithin A compounds; phosphate buffer pH 4, room temperature; read-out: Solubility
Structures can show the parent of a compound that is named as a salt.
property_name: solubility

INSERT INTO results (compound, property_name, readout_value) VALUES
  ('NCC(=O)Oc1ccc2c(c1)oc(=O)c1cc(OC(=O)CN)ccc12 [Example 1, dihydrochloride]', 'solubility', '1930 µg/mL'),
  ('CC(N)C(=O)Oc1ccc2c(c1)oc(=O)c1cc(OC(=O)[C@@H](C)N)ccc12 (stereo in doubt) [Example 2, dihydrochloride]', 'solubility', '1800 µg/mL'),
  ('O=c1oc2cc(O)ccc2c2ccc(O)cc12 [Urolithin A, reference compound]', 'solubility', '0.13 µg/mL'),
  ('CC(C)CC(N)C(=O)Oc1ccc2c(c1)oc(=O)c1cc(OC(=O)[C@H](N)CC(C)C)ccc12 (stereo in doubt) [Example 4, dihydrochloride]', 'solubility', '2150 µg/mL');

* * *

assay: Solubility in phosphate buffer at pH 4 at room temperature, filtered solution analysed by HPLC against DMSO standard; assay type: physicochemical; settings: aqueous buffer, thermodynamic from solid; Urolithin B compounds; phosphate buffer pH 4, room temperature; read-out: Solubility
Counter-ions that a name gives are not always drawn.
property_name: solubility (µg/mL)

INSERT INTO assay_data (compound, readout_value) VALUES
  ('NCC(=O)Oc1ccc2c(c1)oc(=O)c1ccccc12 [Example 3, hydrochloride]', 1330),
  ('O=c1oc2cc(O)ccc2c2ccccc12 [Urolithin B, reference compound]', 0.27);
